Origin of the recorded values: patent US10526294B2

system: BT474 cells; assay: Cell viability assay (CellTiter-Glo), BT474; assay type: cell-based; conditions: Homo sapiens, BT-474; conjugates (Table II); HER2 expressing cells; 72 h
propertyMeasured: IC50

Example results:
- compound: "C=C1CC2C=Nc3cc(OCCCC(=O)Nc4cn(C)c(C(=O)Nc5ccc(-c6cc(C(=O)n7ccc8cc(N)ccc87)n(C)c6)cc5)n4)c(OC)cc3C(=O)N2C1 (centres unmarked)"
  assayedSystem: "BT474 cells"
  observedMeasurement: "0.09 nM"
- compound: "C=C1CC2C=Nc3cc(OCCCC(=O)Nc4cn(C)c(C(=O)Nc5ccc(-c6cc(C(=O)n7ccc8cc(C(=O)OC)ccc87)n(C)c6)cc5)n4)c(OC)cc3C(=O)N2C1 (centres unmarked)"
  assayedSystem: "BT474 cells"
  observedMeasurement: "0.09 nM"
- compound: "C=C1C[C@H]2C=Nc3cc(OCCCC(=O)Nc4cn(C)c(C(=O)Nc5ccc(-c6nc7cc(OC)ccc7[nH]6)cc5)n4)c(OC)cc3C(=O)N2C1"
  assayedSystem: "BT474 cells"
  observedMeasurement: "0.73 nM"
- compound: "C=C1C[C@H]2C=Nc3cc(OCCCC(=O)Nc4cn(C)c(C(=O)Nc5ccc(-c6cc7cc(OC)ccc7[nH]6)cc5)n4)c(OC)cc3C(=O)N2C1"
  assayedSystem: "BT474 cells"
  observedMeasurement: "0.02 nM"

--- query ---
For record C=C1CC2C=Nc3cc(OCCCC(=O)Nc4cn(C)c(C(=O)Nc5ccc(-c6cc(C(=O)n7ccc8cc(OC)ccc87)n(C)c6)cc5)n4)c(OC)cc3C(=O)N2C1 (centres unmarked) the listed IC50 is 0.16 nM

* * *

test system: JIMT1 cells; experiment: Cell viability assay (CellTiter-Glo), JIMT1; assay type: cell-based; details: Homo sapiens, JIMT-1; PBD compounds (Table I); HER2 medium expression level cells; 72 h
Reported pIC50 values for the following compounds.
The scale used: pIC50 is minus the common logarithm of the concentration in molar units.

Observed pIC50, JIMT1 cells, C=C1C[C@H]2C=Nc3cc(OCCCC(=O)Nc4cn(C)c(C(=O)Nc5cc(C(=O)Nc6ccc(-c7nc8cc(N)ccc8[nH]7)cc6)n(C)c5)n4)c(OC)cc3C(=O)N2C1 [Compound 24] : 8.74

Item C=C1C[C@H]2C=Nc3cc(OCCCC(=O)Nc4cn(C)c(C(=O)Nc5ccc(-c6cc(C(=O)OCCCN)n(C)c6)cc5)n4)c(OC)cc3C(=O)N2C1 [Compound 41] ; assay system JIMT1 cells; pIC50 reported as 9.10

* * *

test system: SKBR3 cells; test: Cell viability assay (CellTiter-Glo), SKBR3; type: cell-based; details: Homo sapiens, SK-BR-3; PBD compounds (Table I); HER2 expressing cells; 72 h
# label = Yes if IC50 < 1 nM else No

- itemSmiles: "C=C1C[C@H]2C=Nc3cc(OCCCC(=O)Nc4cn(C)c(C(=O)Nc5ccc(-c6cc(C(=O)OCCCN)n(C)c6)cc5)n4)c(OC)cc3C(=O)N2C1"
  labelClass: "No"
- itemSmiles: "C=C1C[C@H]2C=Nc3cc(OCCCC(=O)Nc4cn(C)c(C(=O)Nc5ccc(-c6cc7cc(N)ccc7[nH]6)cc5)n4)c(OC)cc3C(=O)N2C1"
  labelClass: "Yes"
- itemSmiles: "COc1cc2c(cc1OCCCC(=O)Nc1cc(C(=O)Nc3ccc(-c4cc(C(=O)NCCCO)n(C)c4)cc3)n(C)c1)N=C[C@@H]1CCCN1C2=O"
  labelClass: "No"
- itemSmiles: "C=C1C[C@H]2C=Nc3cc(OCCCC(=O)Nc4cn(C)c(C(=O)Nc5ccc(-c6nc7ccc(N)cc7[nH]6)cc5)n4)c(OC)cc3C(=O)N2C1"
  labelClass: "Yes"
- itemSmiles: "C=C1C[C@H]2C=Nc3cc(OCCCC(=O)Nc4cn(C)c(C(=O)Nc5ccc(-c6cc(C(=O)NC[C@H](C)O)n(C)c6)cc5)n4)c(OC)cc3C(=O)N2C1"
  labelClass: "No"

Next:
Exercise: Just wondering, is IC50 of COc1cc2c(cc1OCCCC(=O)Nc1cn(C)c(C(=O)Nc3ccc(-c4cc(C(=O)O)n(C)c4)cc3)n1)N=C[C@@H]1CCCN1C2=O below 1 nM?
Solution: No

* * *

Below, each entry is listed with its recorded pIC50.
system: SKBR3 cells; experiment: Cell viability assay (CellTiter-Glo), SKBR3; format: cell-based; conditions: Homo sapiens, SK-BR-3; PBD compounds (Table I); HER2 expressing cells; 72 h
# pIC50: negative log10 of molar concentration; output just the value

- compound: "C=C1C[C@H]2C=Nc3cc(OCCCC(=O)Nc4cc(C(=O)Nc5ccc(-c6cc(C(=O)NCCCO)n(C)c6)cc5)n(C)c4)c(OC)cc3C(=O)N2C1"
  pIC50: 9.05

pIC50 recorded for this compound, C=C1C[C@H]2C=Nc3cc(OCCCC(=O)Nc4cn(C)c(C(=O)Nc5ccc(-c6cc(C(=O)NCCCO)n(C)c6)cc5)n4)c(OC)cc3C(=O)N2C1 , is 9.22

Just so you know, measured pIC50 for C=C1CC2C=Nc3cc(OCCCC(=O)Nc4cn(C)c(C(=O)Nc5ccc(-c6nc7ccc(C(=O)OC)cc7[nH]6)cc5)n4)c(OC)cc3C(=O)N2C1 (stereo not drawn) came out at 9.52

* * *

Test system: JIMT1 cells
Assay: Cell viability assay (CellTiter-Glo), JIMT1
Format: cell-based
Details: Homo sapiens, JIMT-1; PBD compounds (Table I); HER2 medium expression level cells; 72 h
Protocol: Cell Viability Assay for Antibody-Polymer-Drug Conjugates. PBD compounds and conjugates thereof were evaluated for their antiproliferation properties in tumor cell lines in vitro using CellTiter-Glo® (Promega Corp). […] CellTiter-Glo® reagent was added to the wells at room temperature and the luminescent signal was measured after 10 min using a SpectraMax M5 plate reader (Molecular Devices). […] IC50 values were determined from four-parameter curve fitting.
propertyMeasured: IC50 (nM)
Respond with the bare value in nM.

Would you please look over these solved cases?
- compound: "C=C1C[C@H]2C=Nc3cc(OCCCC(=O)Nc4cn(C)c(C(=O)Nc5ccc(-c6cc(C(=O)O)n(C)c6)cc5)n4)c(OC)cc3C(=O)N2C1 [Compound 43]"
  IC50 (nM): 33.2
- compound: "C=C1C[C@H]2C=Nc3cc(OCCCC(=O)Nc4cn(C)c(C(=O)Nc5ccc(-c6cc(C(=O)NC[C@H](C)O)n(C)c6)cc5)n4)c(OC)cc3C(=O)N2C1 [Compound 42]"
  IC50 (nM): 1.2

# context switch: different compound, same IC50
The compound listed as COc1cc2c(cc1OCCCC(=O)Nc1cn(C)c(C(=O)Nc3ccc(-c4cc(C(=O)NCCCO)n(C)c4)cc3)n1)N=C[C@@H]1CCCN1C2=O [Compound 40] has a reported IC50 of 1.3

* * *

Test system: SKBR3 cells
Test: Cell viability assay (CellTiter-Glo), SKBR3
Format: cell-based
Settings: Homo sapiens, SK-BR-3; PBD compounds (Table I); HER2 expressing cells; 72 h
Method: Cell Viability Assay for Antibody-Polymer-Drug Conjugates. PBD compounds and conjugates thereof were evaluated for their antiproliferation properties in tumor cell lines in vitro using CellTiter-Glo® (Promega Corp). […] CellTiter-Glo® reagent was added to the wells at room temperature and the luminescent signal was measured after 10 min using a SpectraMax M5 plate reader (Molecular Devices). […] IC50 values were determined from four-parameter curve fitting.
propertyMeasured: pIC50
// pIC50 here means minus log10 of the molar concentration (mol/L)

- itemSmiles: "C=C1C[C@H]2C=Nc3cc(OCCCC(=O)Nc4cn(C)c(C(=O)Nc5ccc(-c6cc(C(=O)O)n(C)c6)cc5)n4)c(OC)cc3C(=O)N2C1"
  observedMeasurement: 8.09

Sure, the documented pIC50 for C=C1C[C@H]2C=Nc3cc(OCCCC(=O)Nc4cc(-c5nc6ccc(N)cc6[nH]5)n(C)c4)c(OC)cc3C(=O)N2C1 is 8.21

Briefly, pIC50 measured for C=C1C[C@H]2C=Nc3cc(OCCCC(=O)Nc4cn(C)c(C(=O)Nc5cc(C(=O)Nc6ccc(-c7nc8cc(N)ccc8[nH]7)cc6)n(C)c5)n4)c(OC)cc3C(=O)N2C1 : 9.00

According to the records, this molecule COc1cc2c(cc1OCCCC(=O)Nc1cn(C)c(C(=O)Nc3ccc(-c4cc(C(=O)NCCCO)n(C)c4)cc3)n1)N=C[C@@H]1CCCN1C2=O displays pIC50 of 9.10
